Test system: A2780 ovarian cancer tumor model
Experiment: Efficacy in animal model of A2780 ovarian cancer, 30 mg/kg once a week for two weeks (Example 41)
Type: in vivo, BALB/c mice
Details: Day 14
Protocol: Test objective: To further compare the antitumor efficacy of different polypeptide Linkers in an animal tumor model of A2780 ovarian cancer. Test drug: Polypeptide conjugate and normal saline control group. 8×10^6 corresponding cells were injected into right axillas of nude mice subcutaneously. […] The negative control group was administered normal saline. Administration was performed once a week for two weeks.
Where a SMILES comes first, the peptide text is derived from it. The star is where a group is joined. X6 = CCCCCN(CCc1c2c(nc3ccccc13)-c1cc3c(c(=O)n1C2)COC(=O)[C@]3(O)CC)*; X2 = CCCCN(CCc1c2c(nc3ccccc13)-c1cc3c(c(=O)n1C2)COC(=O)[C@]3(O)CC)*; X4 = CCCN(CCc1c2c(nc3ccccc13)-c1cc3c(c(=O)n1C2)COC(=O)[C@]3(O)CC)*; X5 = CC[C@@]1(O)C(=O)OCc2c1cc1n(c2=O)Cc2c-1nc1ccccc1c2CCN(CC(C)C)*; Propanoyl(3-maleimido) = O=C1C=CC(=O)N1CCC(=O)*; PEG6 = NCCOCCOCCOCCOCCOCCOCCC(=O)O
ASSAY_READOUT: A2780 (ovarian cancer) mean tumor volume (mm^3) Day 14
Note: unit mm^3 is implicit; provide only the numeric part.

Observe how each entry below is paired with its result.
CCCN(CCc1c2c(nc3ccccc13)-c1cc3c(c(=O)n1C2)COC(=O)[C@]3(O)CC)C(=O)CNC(=O)[C@H](CC(N)=O)NC(=O)[C@H](C)NC(=O)[C@H](C)NC(=O)CCOCCOCCOCCOCCOCCOCCNC(=O)CCN1C(=O)C=CC1=O [MI-6PEG-AANG-D3] ({Propanoyl(3-maleimido)-PEG6}-AANG-X4): 1141.65
CC[C@@]1(O)C(=O)OCc2c1cc1n(c2=O)Cc2c-1nc1ccccc1c2CCN(CC(C)C)C(=O)[C@H](CC(C)C)NC(=O)[C@H](CC(N)=O)NC(=O)[C@H](C)NC(=O)[C@H](C)NC(=O)CCOCCOCCOCCOCCOCCOCCNC(=O)CCN1C(=O)C=CC1=O [MI-6PEG-AANL-D5] ({Propanoyl(3-maleimido)-PEG6}-AANL-X5): 1116.71
CCCN(CCc1c2c(nc3ccccc13)-c1cc3c(c(=O)n1C2)COC(=O)[C@]3(O)CC)C(=O)[C@H](CC(C)C)NC(=O)[C@H](CC(N)=O)NC(=O)[C@H](C)NC(=O)[C@H](C)NC(=O)CCOCCOCCOCCOCCOCCOCCNC(=O)CCN1C(=O)C=CC1=O [MI-6PEG-AANL-D3] ({Propanoyl(3-maleimido)-PEG6}-AANL-X4): 1508.23

QUERY: Recall the recorded A2780 (ovarian cancer) mean tumor volume (mm^3) Day 14 for CCCCCN(CCc1c2c(nc3ccccc13)-c1cc3c(c(=O)n1C2)COC(=O)[C@]3(O)CC)C(=O)CNC(=O)[C@H](CC(N)=O)NC(=O)[C@H](C)NC(=O)[C@H](C)NC(=O)CCOCCOCCOCCOCCOCCOCCNC(=O)CCN1C(=O)C=CC1=O [MI-6PEG-AANG-D4] ({Propanoyl(3-maleimido)-PEG6}-AANG-X6) with A2780 ovarian cancer tumor model and state it.
RESULT: 977.54

QUERY: Form entry - test system: A2780 ovarian cancer tumor model; read-out: A2780 (ovarian cancer) mean tumor volume (mm^3) Day 14; molecule: CC[C@@]1(O)C(=O)OCC2=C1C=C1c3nc4ccccc4c(CCN(C(=O)OCc4ccc(NC(=O)[C@H](CC(N)=O)NC(=O)[C@H](C)NC(=O)[C@H](C)NC(=O)CCOCCOCCOCCOCCOCCOCCNC(=O)CCN5C(=O)C=CC5=O)cc4)C(C)C)c3CN1C2 [MI-6PEG-AAN-PAB-Belotecan]
RESULT: 1135.00

QUERY: Which measured A2780 (ovarian cancer) mean tumor volume (mm^3) Day 14 belongs to CCCCN(CCc1c2c(nc3ccccc13)-c1cc3c(c(=O)n1C2)COC(=O)[C@]3(O)CC)C(=O)[C@H](CC(C)C)NC(=O)[C@H](CC(N)=O)NC(=O)[C@H](C)NC(=O)[C@H](C)NC(=O)CCOCCOCCOCCOCCOCCOCCNC(=O)CCN1C(=O)C=CC1=O [MI-6PEG-AANL-D4] ({Propanoyl(3-maleimido)-PEG6}-AANL-X2) , tested on A2780 ovarian cancer tumor model?
RESULT: 1345.03
